# procedureSummary: blood pressure and heart rate in pentobarbital-anesthetized normotensive rats
# Assay type: in vivo, rat
# assayContext: rat, in vivo, iv; normotensive rats, pentobarbital-induced anesthesia; read-out: ED50, decrease of the mean arterial blood pressure
Item-by-item account of ED50
Answer in mg/kg, number only, no unit symbol.

C#CCN(C)C(=O)[C@@H]1C=C2c3cccc4[nH]c(Br)c(c34)C[C@H]2N(C)C1    0.42

Now consider the entry below.
Form: compound = `C#CCN(C)C[C@@H]1C=C2c3cccc4[nH]cc(c34)C[C@H]2N(C)C1` ; ED50 = 0.37

###

# assaySystem: isolated rabbit thoracic aorta (serotonin) (Oryctolagus cuniculus)
# Construct: isolated rabbit thoracic aorta; from tissue; host or cells: isolated rabbit thoracic aorta
# Sequence (G1SYA7 entry or part of it): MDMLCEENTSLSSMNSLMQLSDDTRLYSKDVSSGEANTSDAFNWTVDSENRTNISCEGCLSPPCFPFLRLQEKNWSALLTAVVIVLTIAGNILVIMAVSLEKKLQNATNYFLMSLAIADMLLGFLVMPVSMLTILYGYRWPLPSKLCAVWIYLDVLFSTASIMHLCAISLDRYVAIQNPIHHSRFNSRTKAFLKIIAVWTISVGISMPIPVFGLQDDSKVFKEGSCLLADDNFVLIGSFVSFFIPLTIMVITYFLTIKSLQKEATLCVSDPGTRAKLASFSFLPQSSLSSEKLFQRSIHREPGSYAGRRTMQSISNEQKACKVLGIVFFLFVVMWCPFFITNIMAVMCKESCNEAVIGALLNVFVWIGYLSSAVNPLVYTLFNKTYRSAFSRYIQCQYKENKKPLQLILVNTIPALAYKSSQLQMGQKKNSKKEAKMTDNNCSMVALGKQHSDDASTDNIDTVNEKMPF
# assayContext: in words
experimentalReadout: mode of inhibition of serotonin constriction

C#CCNC(=O)[C@@H]1C=C2c3cccc4[nH]c(Br)c(c34)C[C@H]2N(C)C1 [Example 2]    competitively inhibited
C#CCN(C)C[C@@H]1C=C2c3cccc4[nH]cc(c34)C[C@H]2N(C)C1 [Example 8]    competitively inhibited
C#CCN(C)C(=O)[C@@H]1C=C2c3cccc4[nH]c(Br)c(c34)C[C@H]2N(C)C1 [Example 5]    competitively inhibited
